Test system: Plasmodium berghei
assay.procedure: Luciferase/luciferin-expressing antifolate-resistant parasites were used to infect a culture of HepG2 cells that were pre-incubated with compounds. Infected hepatocytes emit light due to the luciferase reaction. Assay results are presented as the percent inhibition of light emission compared to control. […]
Assay type: functional
conditions: sporozoite, read-out: LUCIFERASE INFECTION ASSAY - IC90
Each entry below carries its reported IC90.

Guide cases for IC90, answers given:
>  <compound>
O=C(COc1ccc2[nH]c3ccccc3c(=O)c2c1)N1CCN(c2ccc(F)cc2)CC1

>  <test.system>
Plasmodium berghei

>  <IC90>
7.49 µM

$$$$
>  <compound>
COCCCNc1nccc2nc(-c3cccc(OC(F)(F)F)c3)[nH]c12

>  <test.system>
Plasmodium berghei

>  <IC90>
> 10 µM

$$$$
>  <compound>
CCCCNC(=O)COc1ccc2[nH]c3ccccc3c(=O)c2c1

>  <test.system>
Plasmodium berghei

>  <IC90>
8.21 µM

$$$$
>  <compound>
O=C(Nc1ncc(Cc2cccc(C(F)(F)F)c2)s1)c1ccc(-n2ccnc2)nc1

>  <test.system>
Plasmodium berghei

>  <IC90>
7.33 µM

$$$$
>  <compound>
OC(c1ccc(Nc2nc3ccccc3s2)cc1)(C(F)(F)F)C(F)(F)F

>  <test.system>
Plasmodium berghei

>  <IC90>
9.74 µM

$$$$

Item under review: COc1ccc(-c2csc(NC(=O)c3ccc(Cl)c(S(=O)(=O)N4CCc5ccccc54)c3)n2)cc1OC . Reported IC90?
> 10 µM

Look up IC90: CC(C)(C)c1csc(-c2ccc(-n3cncn3)nc2)n1
> 11.6 µM

Consider the compound Cc1cc(C(=O)Oc2ccccc2C(N)=O)c(C)n1Cc1ccco1 and give its measured IC90.
1.27 µM

Fill in: IC90 of O=c1c(Cl)c(Cl)cnn1-c1ccc(C(F)(F)F)cc1 is ___
5 µM

Quick one: IC90 for O=C(Nc1ncccc1O)c1ccc(-n2cnc3ccccc32)cc1 ?
6.03 µM
